# Test system: HEK-293T
# Procedure Details: Incucyte cell viability with HEK293T; further: unitless GR value; below 1 slowed growth and below 0 cell loss
# Format: toxicity, cell-based
# Test Conditions: human, 6 h, 10 µM, compound concentration 10 uM, replicate number 1, timepoint 6 hours
Tick label 1 if Growth Rate is 0.5 or greater. Tick label 0 if Growth Rate is less than 0.5.

Example results:
- Compound: "CC[C@H](NC(=O)c1c(C)c(-c2ccccc2)nc2ccccc12)c1ccccc1"
  Discrete Label: "label 1"
- Compound: "c1ccc(NCc2ccc(CNc3ccccn3)cc2)nc1"
  Discrete Label: "label 1"
- Compound: "CN(C)C(=O)N1CC[C@H](NC2=Nc3cc(F)ccc3N(CC(F)F)c3ccc(Cl)cc32)C1"
  Discrete Label: "label 1"
- Compound: "CCc1cc2c(cc1-c1cccc(S(=O)(=O)F)c1)C(C)(C)c1[nH]c3cc(C#N)ccc3c1C2=O"
  Discrete Label: "label 0"
- Compound: "CC(C)(C)c1ccc(S(=O)(=O)Nc2ccc(Cl)cc2C(=O)c2cc[n+]([O-])cc2)cc1"
  Discrete Label: "label 1"

Req: Is it the case that CCC(=O)NCC[C@@H]1CCc2ccc3c(c21)CCO3 has Growth Rate reaching or exceeding 0.5?
Resp: label 1

Req: Is it the case that CC(C)c1cc(Oc2c(Cl)cc(-n3nc(C#N)c(=O)[nH]c3=O)cc2Cl)n[nH]c1=O has Growth Rate reaching or exceeding 0.5?
Resp: label 1

Req: Is it the case that O=S(=O)(c1ccccc1)N(CC(F)(F)F)c1ccc(C(O)(C(F)(F)F)C(F)(F)F)cc1 has Growth Rate reaching or exceeding 0.5?
Resp: label 1

Req: Is it the case that CCNC(=O)[C@H]1O[C@@H](n2cnc3c(N)nc(NCCc4ccc(CCC(=O)O)cc4)nc32)[C@H](O)[C@@H]1O.Cl has Growth Rate reaching or exceeding 0.5?
Resp: label 1

Req: Is it the case that Br.Br.N=C(N)NCCSC(=N)N has Growth Rate reaching or exceeding 0.5?
Resp: label 1

Req: Is it the case that CC(C)CC(=O)Nc1cncc(-c2ccc3[nH]nc(-c4nc5c(-c6cccc(F)c6)cncc5[nH]4)c3c2)c1 has Growth Rate reaching or exceeding 0.5?
Resp: label 0

Req: Is it the case that CC[S+]([O-])c1nc(-c2cccc(OCc3ccccc3)c2)cc(C(F)(F)F)n1 (stereo not given) has Growth Rate reaching or exceeding 0.5?
Resp: label 0

Req: Is it the case that Cc1ccc(O)c([C@H](CCN(C(C)C)C(C)C)c2ccccc2)c1.O=C(O)C(O)C(O)C(=O)O [TOLTERODINE TARTRATE] has Growth Rate reaching or exceeding 0.5?
Resp: label 1

Req: Is it the case that Br.Oc1cc2c(cc1O)C(c1ccccc1)CNCC2 (stereo not given) has Growth Rate reaching or exceeding 0.5?
Resp: label 1

Req: Is it the case that COc1cc2nc(N(C)CCCNC(=O)C3CCCO3)nc(N)c2cc1OC.Cl (stereo not given) [ALFUZOSIN HYDROCHLORIDE] has Growth Rate reaching or exceeding 0.5?
Resp: label 1

Req: Is it the case that COc1ccc(NC(=O)c2ccc(-c3ccc(-c4noc(C)n4)cc3C)cc2)cc1OCCN(C)C.Cl has Growth Rate reaching or exceeding 0.5?
Resp: label 0

Req: Is it the case that CCN1C(=CC(C)=O)Sc2ccc(OC)cc21 has Growth Rate reaching or exceeding 0.5?
Resp: label 0

Req: Is it the case that CCC(=O)N1CC[C@H](Nc2ncnc3c2CN(c2cnc(OC)c(C(F)(F)F)c2)CC3)C1 has Growth Rate reaching or exceeding 0.5?
Resp: label 0

Req: Is it the case that S=C(NCCCc1c[nH]cn1)NCCCN(Cc1ccc(Cl)c(Cl)c1)c1ccc(Br)cn1 has Growth Rate reaching or exceeding 0.5?
Resp: label 0
